All values here come from patent EP1203770A1.

target_system: HIV-1 protease (Human immunodeficiency virus type 1 group M subtype B)
Construct: The protease (or proteinase), consisting of only 99 amino acids, is among the smallest enzymes known
test_name: In vitro HIV protease inhibitory assay (HIV Protease FITC Assay)
Type: biochemical
recorded_conditions: HIV-1 Dose 30.000 uM; read-out: HIV-1 Protease % Inhib
recorded_metric: inhibition at 30 µM

Some compounds with known inhibition at 30 µM results, for comparison:
CCC(Cc1cccc(Cl)c1)c1cc(O)c(C(c2ccccc2)C2CC2)c(=O)o1 (centres unmarked) : 92.3%
O=c1oc(CCC(F)(F)F)cc(O)c1C(c1ccccc1)C1CC1 (centres unmarked) : 67.1%

Lab entry: HIV-1 protease (Human immunodeficiency virus type 1 group M subtype B) assay, compound Cc1ccc(S(=O)(=O)Nc2cccc(C(c3c(O)cc(C(CC4CC4)CC4CCCOC4)oc3=O)C3CC3)c2)cc1 (centres unmarked) , inhibition at 30 µM = 94.1%

Lab entry: HIV-1 protease (Human immunodeficiency virus type 1 group M subtype B) assay, compound CCC(Cc1ccccc1)c1cc(O)c(C(c2cccc(NC(=O)NS(=O)(=O)c3ccccc3)c2)C2CC2)c(=O)o1 (centres unmarked) , inhibition at 30 µM = 90.5%

Lab entry: HIV-1 protease (Human immunodeficiency virus type 1 group M subtype B) assay, compound O=c1oc(CC2CCCC2)cc(O)c1C(c1ccccc1)C1CC1 (centres unmarked) , inhibition at 30 µM = 93.8%

Lab entry: HIV-1 protease (Human immunodeficiency virus type 1 group M subtype B) assay, compound CCC(Cc1ccccc1)c1cc(O)c(C(c2cccc(NS(=O)(=O)c3ccc(Br)cc3)c2)C2CC2)c(=O)o1 (centres unmarked) , inhibition at 30 µM = 95.5%

Lab entry: HIV-1 protease (Human immunodeficiency virus type 1 group M subtype B) assay, compound CCC(Cc1cccnc1)c1cc(O)c(C(c2ccccc2)C2CC2)c(=O)o1 (centres unmarked) , inhibition at 30 µM = 98.6%

Lab entry: HIV-1 protease (Human immunodeficiency virus type 1 group M subtype B) assay, compound CCC(Cc1ccc(Br)cc1)c1cc(O)c(C(c2ccccc2)C2CC2)c(=O)o1 (centres unmarked) , inhibition at 30 µM = 96.1%

----------
target_system: HIV-1 protease (Human immunodeficiency virus type 1 group M subtype B)
Construct: The protease (or proteinase), consisting of only 99 amino acids, is among the smallest enzymes known
test_name: In vitro HIV protease inhibitory assay (HIV Protease FITC Assay)
Type: biochemical
recorded_conditions: HIV-1 Dose 11.000 uM; read-out: HIV-1 Protease % Inhib
recorded_metric: inhibition at 11 µM (%)
Write the answer as a number in %, unit excluded.

Some compounds with known inhibition at 11 µM results, for comparison:
CCC(CCOCCOC)c1cc(O)c(C(c2ccccc2)C2CC2)c(=O)o1 (stereo not drawn) [Example 106] : 111
CCC(CC1CCOC1)c1cc(O)c(C(c2ccccc2)C2CC2)c(=O)o1 (stereo not drawn) [Example 45] : 103
CCC(Cc1ccc(Cl)s1)c1cc(O)c(C(c2ccccc2)C2CC2)c(=O)o1 (stereo not drawn) [Example 52] : 112
CCC(CC1CCCO1)c1cc(O)c(C(c2ccccc2)C2CC2)c(=O)o1 (stereo not drawn) [Example 56] : 117

Summary for this compound, CC(C)(C)c1nc(CCc2cc(O)c(C(c3ccccc3)C3CC3)c(=O)o2)no1 (stereo not drawn) [Example 44] : inhibition at 11 µM is 84.3

Summary for this compound, O=c1oc(CCCCl)cc(O)c1C(c1ccccc1)C1CC1 (stereo not drawn) [Example 53] : inhibition at 11 µM is 102

Summary for this compound, CCCc1oc(=O)c(C(CC)c2ccccc2)c(O)c1Br (stereo not drawn) [Example 109] : inhibition at 11 µM is 106

Summary for this compound, COCCOCCOCCc1c(C(CC2CC2)CC2CC2)oc(=O)c(C(c2ccccc2)C2CC2)c1O (stereo not drawn) [Example 112] : inhibition at 11 µM is 18.9

Summary for this compound, CCC(c1ccccc1)c1c(O)c(Br)c(C(CC2CC2)CC2CC2)oc1=O (stereo not drawn) [Example 77] : inhibition at 11 µM is 109

----------
target_system: HIV-1 protease (Human immunodeficiency virus type 1 group M subtype B)
Construct: The protease (or proteinase), consisting of only 99 amino acids, is among the smallest enzymes known
test_name: In vitro HIV protease inhibitory assay (HIV Protease FITC Assay)
Assay type: biochemical
recorded_conditions: HIV-1 Dose 3.300 uM; read-out: HIV-1 Protease % Inhib
recorded_metric: inhibition at 3.3 µM (%)
Write the answer as a number in %, unit excluded.

Some molecules with known inhibition at 3.3 µM results, for comparison:
O=c1oc(CCC(F)(F)F)cc(O)c1C(c1ccccc1)C1CC1 (centres unmarked) [Example 139] : 27.9
CCCC1(CCCc2ccccc2)CC(O)=C(C(c2ccccc2)c2ccccc2)C(=O)O1 (centres unmarked) [Example 242] : 80.5
O=c1oc(CCc2ccc(F)cc2)cc(O)c1C(c1ccccc1)C1CC1 (centres unmarked) [Example 165] : 60
CCC(Cc1ccccc1C(F)(F)F)c1cc(O)c(C(c2ccccc2)C2CC2)c(=O)o1 (centres unmarked) [Example 162] : 34.4

Summary for this molecule, O=c1oc(CC(O)c2ccco2)cc(O)c1C(c1ccccc1)C1CC1 (centres unmarked) [Example 117] : inhibition at 3.3 µM is 51.2

----------
target_system: HIV-1 protease (Human immunodeficiency virus type 1 group M subtype B)
Construct: The protease (or proteinase), consisting of only 99 amino acids, is among the smallest enzymes known
test_name: In vitro HIV protease inhibitory assay (HIV Protease FITC Assay)
Type: biochemical
recorded_conditions: HIV-1 Dose 0.370 uM; read-out: HIV-1 Protease % Inhib
Property: inhibition at 0.37 µM; scope: individual compounds

Some compounds with known inhibition at 0.37 µM results, for comparison:
CCCCC1(Cc2ccccc2)CC(O)=C(C(C=Cc2ccccc2)c2ccccc2)C(=O)O1 (stereo not shown) : < 10%
CCC(Cc1ccccc1)c1cc(O)c(C(c2cccc(NC(=O)Nc3ccc(Br)cc3)c2)C2CC2)c(=O)o1 (stereo not shown) : < 10%
O=c1oc(CC2CCCC2)cc(O)c1C(c1ccccc1)C1CC1 (stereo not shown) : < 10%

Summary for this compound, CCC(Cc1ccccc1)c1cc(O)c(C(c2cccc(NS(=O)(=O)c3cc(Cl)ccc3Cl)c2)C2CC2)c(=O)o1 (stereo not shown) : inhibition at 0.37 µM is 15%

Summary for this compound, O=c1oc(CCc2nnnn2C2CCCCC2)cc(O)c1C(c1ccccc1)C1CC1 (stereo not shown) : inhibition at 0.37 µM is < 10%

Summary for this compound, CC(C)C(Cc1ccccc1)c1cc(O)c(C(c2ccccc2)C2CC2)c(=O)o1 (stereo not shown) : inhibition at 0.37 µM is 49.6%

Summary for this compound, CCC(Cc1ccccc1)c1cc(O)c(C(c2cccc(NC(=O)CC[C@H](NC(=O)OCc3ccccc3)C(=O)OCc3ccccc3)c2)C2CC2)c(=O)o1 (stereo partly shown) : inhibition at 0.37 µM is < 10%

----------
target_system: HIV-1 protease (Human immunodeficiency virus type 1 group M subtype B)
Construct: The protease (or proteinase), consisting of only 99 amino acids, is among the smallest enzymes known
test_name: In vitro HIV protease inhibitory assay (HIV Protease FITC Assay)
Format: biochemical
recorded_conditions: HIV-1 Dose 1.100 uM; read-out: HIV-1 Protease % Inhib
recorded_metric: inhibition at 1.1 µM (%)
Write the answer as a number in %, unit excluded.

CCC(Cc1ccccc1)c1cc(O)c(C(c2cccc(NS(=O)(=O)c3ccc(OC)cc3)c2)C2CC2)c(=O)o1 (centres unmarked) [Example 185] : 89.1
O=C1OC(Cc2ccccc2)(c2ccccc2)CC(O)=C1C(/C=C/c1ccccc1)c1ccccc1 (centres unmarked) [Example 172] : 11.7
O=C1OC(CCc2ccccc2)(CCc2ccccc2)CC(O)=C1C(CCc1ccccc1)c1ccccc1 (centres unmarked) [Example 237] : 32
CCC(CC1CCCN(S(=O)(=O)c2ccc(C)cc2)C1)c1cc(O)c(C(c2ccccc2)C2CC2)c(=O)o1 (centres unmarked) [Example 137] : 23
CCC(Cc1ccc(Br)cc1)c1cc(O)c(C(c2ccccc2)C2CC2)c(=O)o1 (centres unmarked) [Example 158] : 70.5
CCC(Cc1cccc(C(F)(F)F)c1)c1cc(O)c(C(c2ccccc2)C2CC2)c(=O)o1 (centres unmarked) [Example 161] : 41.8

Summary for this molecule, O=c1oc(C(CC2CC2)CC2CCCOC2)cc(O)c1C(c1ccccc1)C1CC1 (centres unmarked) [Example 243] : inhibition at 1.1 µM is 70.5

Summary for this molecule, CCC(Cc1ccc(OC)cc1)c1cc(O)c(C(c2ccccc2)C2CC2)c(=O)o1 (centres unmarked) [Example 163] : inhibition at 1.1 µM is 65.6

----------
target_system: HIV-1 protease (Human immunodeficiency virus type 1 group M subtype B)
Construct: The protease (or proteinase), consisting of only 99 amino acids, is among the smallest enzymes known
test_name: In vitro HIV protease inhibitory assay (HIV Protease FITC Assay)
Format: biochemical
recorded_conditions: HIV-1 Dose 10.000 uM; read-out: HIV-1 Protease % Inhib
Property: inhibition at 10 µM; scope: individual compounds
Write the answer as a number in %, unit excluded.

CCC(CCCc1ccccc1)c1cc(O)c(C(c2ccccc2)C2CC2)c(=O)o1 (stereo not drawn) : 72.6
O=C1OC(CCc2ccccc2)(CCc2ccccc2)CC(O)=C1C(c1ccccc1)c1ccccc1 : 73.3
O=c1oc(CC(O)c2ccc(F)cc2)cc(O)c1C(c1ccccc1)C1CC1 (stereo not drawn) : 91.9
CCC(CC1CCCN1S(=O)(=O)c1ccc(C)cc1)c1cc(O)c(C(c2ccccc2)C2CC2)c(=O)o1 (stereo not drawn) : 83.3
CCC(CC1=CCCOC1)c1cc(O)c(C(c2ccccc2)C2CC2)c(=O)o1 (stereo not drawn) : 102
CCC(c1ccccc1)c1c(O)cc(CCCc2ccccc2)oc1=O (stereo not drawn) : 79
O=c1oc(C(CC2CC2)CC2CC2)cc(O)c1C(Cc1ccccc1)Cc1ccccc1 : 122
O=C1OC(CCc2ccccc2)(CCc2ccccc2)CC(O)=C1C(CCc1ccccc1)c1ccccc1 (stereo not drawn) : 80.9
C=CC(C1=C(O)CC(CCc2ccccc2)(CC(C)C)OC1=O)c1ccccc1 (stereo not drawn) : 93.7
O=c1oc(CC(O)c2ccc(Cl)cc2)cc(O)c1C(c1ccccc1)C1CC1 (stereo not drawn) : 98.5

Summary for this compound, O=c1oc(CC(O)c2ccsc2)cc(O)c1C(c1ccccc1)C1CC1 (stereo not drawn) : inhibition at 10 µM is 88.6

Summary for this compound, COCCOCCCc1cc(O)c(C(c2ccccc2)C2CC2)c(=O)o1 (stereo not drawn) : inhibition at 10 µM is 62.2

Summary for this compound, O=c1oc(CCCC(F)(F)F)cc(O)c1C(c1ccccc1)C1CC1 (stereo not drawn) : inhibition at 10 µM is 83.9

Summary for this compound, CCC(c1ccccc1)c1c(O)c(Br)c(CCC2CC2)oc1=O (stereo not drawn) : inhibition at 10 µM is 94.6

Summary for this compound, CCCC(c1ccc(Br)cc1)c1c(O)cc(CCc2ccccc2)oc1=O (stereo not drawn) : inhibition at 10 µM is 15.8

Summary for this compound, CCC(Cc1ccccc1)c1cc(O)c(C(c2cccc(NC(=O)Nc3ccccc3)c2)C2CC2)c(=O)o1 (stereo not drawn) : inhibition at 10 µM is 67.1

Summary for this compound, CCC(CC)c1cc(O)c(C(c2ccccc2)C2CC2)c(=O)o1 (stereo not drawn) : inhibition at 10 µM is 98.3
